Would you mind telling me the reported log10 of IC50 of each entry?
Biological target: JAK3 (Homo sapiens, UniProt P52333)
Sequence (P52333 1-1124): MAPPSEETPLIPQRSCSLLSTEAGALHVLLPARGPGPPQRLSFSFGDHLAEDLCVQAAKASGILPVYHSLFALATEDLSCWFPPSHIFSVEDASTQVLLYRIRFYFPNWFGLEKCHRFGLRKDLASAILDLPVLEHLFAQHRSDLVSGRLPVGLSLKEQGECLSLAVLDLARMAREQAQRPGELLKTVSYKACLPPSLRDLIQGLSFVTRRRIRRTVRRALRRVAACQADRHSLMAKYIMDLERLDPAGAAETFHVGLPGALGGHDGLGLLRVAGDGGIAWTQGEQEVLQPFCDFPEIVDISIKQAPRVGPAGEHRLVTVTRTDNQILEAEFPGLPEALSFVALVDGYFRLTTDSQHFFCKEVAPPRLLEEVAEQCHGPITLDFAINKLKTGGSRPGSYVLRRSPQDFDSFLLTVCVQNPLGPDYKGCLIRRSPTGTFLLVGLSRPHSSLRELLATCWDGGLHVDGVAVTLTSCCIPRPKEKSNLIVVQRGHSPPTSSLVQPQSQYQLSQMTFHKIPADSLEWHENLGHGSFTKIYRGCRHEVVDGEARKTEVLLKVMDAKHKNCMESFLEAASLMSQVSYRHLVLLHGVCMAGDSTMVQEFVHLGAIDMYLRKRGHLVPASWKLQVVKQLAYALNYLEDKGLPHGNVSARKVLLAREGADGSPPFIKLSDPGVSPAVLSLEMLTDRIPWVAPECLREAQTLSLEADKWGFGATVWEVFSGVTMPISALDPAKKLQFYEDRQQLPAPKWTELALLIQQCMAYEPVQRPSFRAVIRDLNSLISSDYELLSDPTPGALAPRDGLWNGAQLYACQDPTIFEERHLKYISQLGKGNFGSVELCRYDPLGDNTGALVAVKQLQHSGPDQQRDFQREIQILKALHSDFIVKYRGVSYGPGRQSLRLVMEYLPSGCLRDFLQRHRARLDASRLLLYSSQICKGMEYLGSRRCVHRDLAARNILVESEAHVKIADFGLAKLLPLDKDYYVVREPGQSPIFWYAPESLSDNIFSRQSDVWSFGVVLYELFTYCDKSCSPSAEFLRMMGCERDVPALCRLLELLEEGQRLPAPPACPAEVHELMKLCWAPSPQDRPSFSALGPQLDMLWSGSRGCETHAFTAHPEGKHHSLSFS
Assay: Caliper Mobility Shift Assay, kinase inhibition
Type: biochemical
Conditions: ATP by Km value
Hey, these are logged values: log10 of IC50, nM being the unit before logging.

Prompt: Lab note: need log10 of IC50 for CS(=O)(=O)N1CC(CC#N)(n2cc(-c3ncnc4[nH]ccc34)c3ccccc32)C1 on JAK3 (Homo sapiens, UniProt P52333), anyone have it?
Completion: 2.11

Prompt: Same again, this time with CCS(=O)(=O)N1CC(CC#N)(n2cc(-c3ncnc4[nH]ccc34)c3ccc(F)cc32)C1
Completion: 1.45

Prompt: Same again, this time with CCS(=O)(=O)N1CC(CC#N)(n2cc(-c3ncnc4[nH]ccc34)c3cc(OC)ccc32)C1
Completion: 2.42

Prompt: Same again, this time with N#CCC1(n2cc(-c3ncnc4[nH]ccc34)c3ccccc32)CN(C(=O)[C@@H]2CCCN2)C1 (stereo in doubt)
Completion: 2.72

Prompt: Same again, this time with CCS(=O)(=O)N1CC(CC#N)(n2cc(-c3ncnc4[nH]ccc34)c3c(F)ccc(F)c32)C1
Completion: 1.86

Prompt: Same again, this time with CCCS(=O)(=O)N1CC(CC#N)(n2cc(-c3ncnc4[nH]ccc34)c3c(F)cc(F)cc32)C1
Completion: 1.83

Prompt: Same again, this time with CCS(=O)(=O)N1CC(CC#N)(n2cc(-c3ncnc4[nH]ccc34)c3cc(F)ccc32)C1
Completion: 1.48

Prompt: Same again, this time with CCOc1ccc2c(-c3ncnc4[nH]ccc34)cn(C3(CC#N)CN(S(=O)(=O)CC)C3)c2c1
Completion: 1.95

Prompt: Same again, this time with N#CCC1(n2cc(-c3ncnc4[nH]ccc34)c3ccccc32)CN(S(=O)(=O)N2CCCC2)C1
Completion: 1.83
